Provide the reported pIC50 of each item.
- System: CL152
- Assay overview: Cytotoxicity, sulforhodamine B (SRB) assay
- Assay type: cell-based
- Measurement context: read-out: IC50 for prochlorperazine metabolites, CL152 parental cells
pIC50: −log10 of the molar value.

In: Fill in: pIC50 of CN1CCN(CCCN2c3ccccc3[S+]([O-])c3ccc(Cl)cc32)CC1 (stereo not shown) [Prochlorperazine sulfoxide] is ___
Out: < 4.70

In: Fill in: pIC50 of C[N+]1([O-])CCN(CCCN2c3ccccc3[S+]([O-])c3ccc(Cl)cc32)CC1 (stereo not shown) [Prochlorperazine sulfoxide 4′-N-oxide] is ___
Out: < 4.70

In: Fill in: pIC50 of Clc1ccc2c(c1)N(CCCN1CCNCC1)c1ccccc1S2 [N-desmethyl prochlorperazine] is ___
Out: ~5.00

In: Fill in: pIC50 of CN1CCN(CCCN2c3ccccc3Sc3ccc(Cl)cc32)CC1 [prochlorperazine] is ___
Out: 4.70 to 5.00
